test name: Pharmacokinetics in rat plasma after oral administration of SF-CS and SP-CS extracts (HPLC-MS/MS)
Type: in vivo, Male Sprague-Dawley rats
study conditions: male, Sprague-Dawley; rat plasma, oral SP-CS extract (B) 2.2 g kg^-1, n = 10, mean ± SD
So basically: is AUC(0-inf) under 200 ng·h/mL? Then 1 (yes). Not under? Then 0 (no).

smiles_repr=O=C(/C=C/c1ccc(O)c(O)c1)O[C@@H]1C[C@](O)(C(=O)O)C[C@@H](O)[C@H]1O class_assignment="0 (no)"
smiles_repr=O=c1c(O[C@@H]2O[C@H](CO)[C@H](O)[C@H](O)[C@H]2O)c(-c2ccc(O)c(O)c2)oc2cc(O)cc(O)c12 class_assignment="1 (yes)"
smiles_repr=O=C(/C=C/c1ccc(O)c(O)c1)O[C@@H]1C[C@@](O)(C(=O)O)C[C@@H](O)[C@@H]1O class_assignment="1 (yes)"
smiles_repr=O=C(O)/C=C/c1ccc(O)cc1 class_assignment="0 (no)"
smiles_repr=O=c1c(O[C@@H]2O[C@H](CO)[C@@H](O)[C@H](O)[C@H]2O)c(-c2ccc(O)cc2)oc2cc(O)cc(O)c12 class_assignment="1 (yes)"

* * *

test name: Pharmacokinetics in rat plasma after oral administration of SF-CS and SP-CS extracts (HPLC-MS/MS)
Format: in vivo, Male Sprague-Dawley rats
study conditions: male, Sprague-Dawley; rat plasma, oral SP-CS extract (B) 2.2 g kg^-1, n = 10, mean ± SD; read-out: AUC0–24h
Would you please tag the item label 1 when its AUC(0-t) is 60 ng·h/mL or above, and label 0 when it is below?

molecule="O=c1c(O[C@@H]2O[C@H](CO)[C@@H](O)[C@H](O)[C@H]2O)c(-c2ccc(O)cc2)oc2cc(O)cc(O)c12 [Astragalin, astragalin]" class_assignment="label 0"
molecule="O=C(/C=C/c1ccc(O)c(O)c1)O[C@@H]1C[C@](O)(C(=O)O)C[C@@H](O)[C@H]1O [Chlorogenic acid, chlorogenic acid]" class_assignment="label 1"
molecule="O=c1c(O[C@@H]2O[C@H](CO)[C@H](O)[C@H](O)[C@H]2O)c(-c2ccc(O)c(O)c2)oc2cc(O)cc(O)c12 [Hyperin, hyperin]" class_assignment="label 1"
molecule="O=C(/C=C/c1ccc(O)c(O)c1)O[C@@H]1C[C@@](O)(C(=O)O)C[C@@H](O)[C@@H]1O [Neochlorogenic acid, neochlorogenic acid]" class_assignment="label 1"
molecule="O=C(O)/C=C/c1ccc(O)cc1 [P-coumaric acid, p-coumaric acid]" class_assignment="label 1"

* * *

Catalogue of Cmax readings, one per entry.
test name: Pharmacokinetics in rat plasma after oral administration of SF-CS and SP-CS extracts (HPLC-MS/MS)
Assay type: in vivo, Male Sprague-Dawley rats
study conditions: male, Sprague-Dawley; rat plasma, oral SP-CS extract (B) 2.2 g kg^-1, n = 10, mean ± SD
Method: All components were measured on an Agilent 1200 HPLC system (Agilent Corporation, Santa Clara, CA, USA) and API 3200 triple quadrupole mass spectrometer (Concord, ON, Canada) in negative ion mode. […] The plasma sample (100 μL), IS (10 μL) and formic acid (10 μL) were mixed and vortexed for 1 min. […] The supernatant was injected into the HPLC-MS/MS and analyzed. […]
quantity: Cmax (ng/mL)

smiles_repr=O=c1c(O[C@@H]2O[C@H](CO)[C@@H](O)[C@H](O)[C@H]2O)c(-c2ccc(O)cc2)oc2cc(O)cc(O)c12 result_value=1.43
smiles_repr=O=C(/C=C/c1ccc(O)c(O)c1)O[C@@H]1C[C@@](O)(C(=O)O)C[C@@H](O)[C@@H]1O result_value=31.8
smiles_repr=O=C(/C=C/c1ccc(O)c(O)c1)O[C@@H]1C[C@](O)(C(=O)O)C[C@@H](O)[C@H]1O result_value=175
smiles_repr=O=c1c(O[C@@H]2O[C@H](CO)[C@H](O)[C@H](O)[C@H]2O)c(-c2ccc(O)c(O)c2)oc2cc(O)cc(O)c12 result_value=36.6
smiles_repr=O=C(O)/C=C/c1ccc(O)cc1 result_value=805

Hey, just so you know, these numbers are from paper PMC6651454.
